# TEST_METHOD_NOTES: qHTS of pediatric cancer cell lines to identify multiple opportunities for drug repurposing: Primary screen for OHS-50 cells (AID 1347103); note: nearly all actives have a fitted effect of over 40% in size
# STUDY_CONDITIONS: OHS-50 osteosarcoma viability, CellTiter-Glo luminescence, 48 h; series mostly up to 57.3 µM
Inconclusive results are not listed. Active and inactive are the calls of the source. Calls come from the whole dose curve; as a rule, active = well fitted cell-killing curve with a large enough effect; inconclusive = small, poorly fitted or top-dose-only effect; inactive = no such curve, though single readings can be large or run the other way.
Permitted responses: active, inactive

Examples with answers:
Q: Call for entry COc1ccccc1N1CCN(CC(O)COc2cccc3ccccc23)CC1 (stereo not given) :
Result: active

Q: Call for entry Cc1ccc(C(=O)Nc2ccc(S(=O)(=O)O)c3cc(S(=O)(=O)O)cc(S(=O)(=O)O)c23)cc1NC(=O)c1cccc(NC(=O)Nc2cccc(C(=O)Nc3cc(C(=O)Nc4ccc(S(=O)(=O)O)c5cc(S(=O)(=O)O)cc(S(=O)(=O)O)c45)ccc3C)c2)c1 :
Result: inactive

Q: Call for entry NCCc1cnc[nH]1 :
Result: inactive

***
Q: Call for entry CS(=O)(=O)Nc1ccc([N+](=O)[O-])cc1Oc1ccccc1 :
Result: inactive

Q: Call for entry Nc1ccn([C@H]2CC[C@@H](CO)O2)c(=O)n1 :
Result: inactive

Q: Call for entry CC(C)Cc1ccc(C(C)C(=O)O)cc1 (stereo not given) :
Result: inactive

Q: Call for entry Cc1cnc(C(=O)NCCc2ccc(S(=O)(=O)NC(=O)NC3CCCCC3)cc2)cn1 :
Result: inactive
